meta.source: the supplement of paper PMC10126150

# Tested on: ATP;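 note: ATP exposure 15 min at 22 °C before imaging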
# Assay Protocol: switch fluorescence ratio, 500 uM ATP over buffer (Cy3 cluster intensity, sum of 5 cycles each) (fold (ratio)); higher = stronger signal-on switching upon ATP binding; sequences stand for … in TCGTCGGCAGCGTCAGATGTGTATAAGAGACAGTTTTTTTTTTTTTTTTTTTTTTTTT…TC
# Test Conditions: aptamer strand: ATP DNA aptamer (quencher-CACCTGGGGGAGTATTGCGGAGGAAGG + anchor), 100 nM annealed; ATP concentration: 500 uM
This listing pairs sequences with measured switch fluorescence ratio.
# output: bare number, no unit

Previously resolved entries follow.
TTTATGAGCG: 0.973
CCGTAATGGG: 1.85
ATTATTGGTG: 1.02
CGGAGAAAGG: 1.03
TATTTGTAGG: 1.05

Missing value: switch fluorescence ratio, ATP, entry AGACGCAGTG . Fill in?
0.983

ATP / switch fluorescence ratio / TACTGGTTGG : value?;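 note: ATP exposure 15 min at 22 °C before imaging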
1

Please tell me: switch fluorescence ratio of TTTCGGTTCC , system ATP?;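 note: ATP exposure 15 min at 22 °C before imaging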
1.05

Which measured switch fluorescence ratio belongs to GCAGCAGGGT , tested on ATP?;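 note: ATP exposure 15 min at 22 °C before imaging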
1.1

Lab note: need switch fluorescence ratio with ATP for entry ACTGTCATTA , please look it up.
1.08
